TARGET OF ASSAY: rat Nav1.4 α-subunit (Rattus norvegicus)
Sequence (P15390 whole entry): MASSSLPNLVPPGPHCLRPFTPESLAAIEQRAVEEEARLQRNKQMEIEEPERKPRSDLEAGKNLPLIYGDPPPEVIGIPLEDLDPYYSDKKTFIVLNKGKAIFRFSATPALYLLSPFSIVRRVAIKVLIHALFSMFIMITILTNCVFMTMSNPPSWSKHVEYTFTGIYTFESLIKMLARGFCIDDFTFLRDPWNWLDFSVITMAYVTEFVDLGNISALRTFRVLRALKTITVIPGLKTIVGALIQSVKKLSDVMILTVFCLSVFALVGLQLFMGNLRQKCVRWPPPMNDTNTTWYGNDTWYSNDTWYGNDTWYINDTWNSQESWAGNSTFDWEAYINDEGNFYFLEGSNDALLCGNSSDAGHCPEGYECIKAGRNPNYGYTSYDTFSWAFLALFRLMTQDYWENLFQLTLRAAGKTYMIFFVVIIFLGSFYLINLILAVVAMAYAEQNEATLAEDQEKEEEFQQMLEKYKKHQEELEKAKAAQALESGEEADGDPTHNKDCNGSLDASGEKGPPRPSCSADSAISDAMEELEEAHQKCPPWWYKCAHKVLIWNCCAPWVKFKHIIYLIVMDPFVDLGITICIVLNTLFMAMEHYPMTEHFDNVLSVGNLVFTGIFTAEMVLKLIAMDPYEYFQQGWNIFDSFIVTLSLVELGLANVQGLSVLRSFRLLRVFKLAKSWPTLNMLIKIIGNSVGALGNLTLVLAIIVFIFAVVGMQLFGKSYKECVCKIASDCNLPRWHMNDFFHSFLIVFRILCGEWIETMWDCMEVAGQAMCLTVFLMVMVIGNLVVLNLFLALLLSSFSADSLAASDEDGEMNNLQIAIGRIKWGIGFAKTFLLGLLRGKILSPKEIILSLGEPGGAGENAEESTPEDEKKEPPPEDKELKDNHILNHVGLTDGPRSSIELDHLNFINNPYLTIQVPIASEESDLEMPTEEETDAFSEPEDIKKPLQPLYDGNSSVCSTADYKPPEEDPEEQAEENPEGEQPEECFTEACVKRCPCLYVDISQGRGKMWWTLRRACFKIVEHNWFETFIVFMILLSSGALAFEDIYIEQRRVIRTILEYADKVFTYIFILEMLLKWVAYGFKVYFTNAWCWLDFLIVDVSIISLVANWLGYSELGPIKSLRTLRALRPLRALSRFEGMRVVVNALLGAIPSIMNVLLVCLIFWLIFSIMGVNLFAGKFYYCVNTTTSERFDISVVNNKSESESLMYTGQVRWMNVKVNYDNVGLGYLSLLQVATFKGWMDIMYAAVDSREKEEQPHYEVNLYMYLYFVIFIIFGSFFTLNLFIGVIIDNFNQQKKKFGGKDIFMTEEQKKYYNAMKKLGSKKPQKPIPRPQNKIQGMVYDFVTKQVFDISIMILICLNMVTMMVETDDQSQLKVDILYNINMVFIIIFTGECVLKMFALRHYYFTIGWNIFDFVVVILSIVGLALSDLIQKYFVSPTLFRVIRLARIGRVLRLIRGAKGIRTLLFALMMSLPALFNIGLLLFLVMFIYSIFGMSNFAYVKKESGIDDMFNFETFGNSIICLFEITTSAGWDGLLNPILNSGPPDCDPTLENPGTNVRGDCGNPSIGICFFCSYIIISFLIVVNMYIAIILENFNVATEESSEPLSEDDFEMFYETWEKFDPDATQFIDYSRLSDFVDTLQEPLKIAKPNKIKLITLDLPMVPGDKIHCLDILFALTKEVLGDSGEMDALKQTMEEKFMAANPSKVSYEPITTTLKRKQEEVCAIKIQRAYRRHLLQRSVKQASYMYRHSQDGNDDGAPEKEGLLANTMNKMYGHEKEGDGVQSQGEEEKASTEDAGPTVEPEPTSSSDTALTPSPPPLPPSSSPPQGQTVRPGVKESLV
PROTOCOL SUMMARY: whole-cell patch clamp, peak INa
PARAMETER MEASURED: IC50 (µM)
Number only, in µM; omit the unit.

Qu. Given the entry FC(F)OC(Cl)C(F)(F)F (stereo not shown) , report its measured IC50.
Ans. 1160

Each recorded value in this set is attributed to paper PMC2699670.
